The origin of these recorded values is ChEMBL document CHEMBL1140221.

Test system: Escherichia coli
Assay: Inhibition of Escherichia coli MurD assessed as residual activity at 1 mM
reportedProperty: Activity (%)
Give the quantity in %, number only.

Form field: reported Activity of "O=C(O)CC[C@@H](NC(=O)/C=C/c1ccccc1)C(=O)O" 91

And "O=C(O)CC[C@@H](NC(=O)COc1ccc2ccccc2c1)C(=O)O" ? 76

Same thing, different molecule: "O=C(O)CC[C@@H](NS(=O)(=O)c1ccc2ccccc2c1)C(=O)O" 35

Then what about the molecule "Cc1ccc(S(=O)(=O)N[C@H](CCC(=O)O)C(=O)O)cc1" ? 66

Same for "O=C(O)CC[C@@H](NS(=O)(=O)Cc1ccc(F)cc1Cl)C(=O)O" 86

Same lookup for "C[C@@H](CS(=O)(=O)N[C@H](CCC(=O)O)C(=O)O)S(=O)(=O)c1ccc2ccccc2c1" , please. 75

Please do the same for O=C(O)CC[C@@H](NC(=O)C1Oc2ccccc2NC1=O)C(=O)O (some centres not stated) as well. 54

Also "O=C(O)CC[C@@H](NS(=O)(=O)Cc1ccccc1)C(=O)O" , if possible. 84

Input "O=C(O)CC[C@@H](NC(=O)CCc1cccc(O)c1)C(=O)O" 81

And the next one, "O=C(O)CC[C@@H](NS(=O)(=O)c1ccc(-c2ccccc2)cc1)C(=O)O" ? 43

Now give it for "O=C(O)CC[C@@H](NC(=O)CN1C(=O)c2ccccc2C1=O)C(=O)O" too. 92

Can you check "CC(=O)Nc1ccc(S(=O)(=O)N[C@H](CCC(=O)O)C(=O)O)cc1" next? 79
